target: mevalonate kinase (Streptococcus pneumoniae D39); test: S. pneumoniae MK inhibition retest, confirmation, biochemical, cuvette format, NADH absorbance 340 nm (AID 1000); settings: recombinant MK, PK/LDH coupled NADH absorbance 340 nm
pIC50: −log10 of the molar value.
property label: pIC50

Check out these entries, answers already filled in.
smiles str | test value
CN1CCN(C(=O)c2ccc(-n3sc4ccccc4c3=O)cc2)CC1 | 6.34
CCCN(CCC)C(=O)c1ccc(-n2sc3ccccc3c2=O)cc1 | 6.77
CN(C)C(=O)c1ccc(-n2sc3ccccc3c2=O)cc1 | 6.41
Cc1ccc(-n2sc3ccccc3c2=O)cc1C(=O)N1CCCCC1 | 6.51

[1] O=C(NC1CC1)c1cccc(-n2sc3ccccc3c2=O)c1
[2] O=C(NC1CC1)c1ccccc1-n1sc2ccccc2c1=O
[3] CN(C)C(=O)c1cccc(-n2sc3ccccc3c2=O)c1
[4] O=C(NCc1ccccc1)c1ccc(-n2sc3ccccc3c2=O)cc1
Query string: List from greatest to least pIC50. To answer, write out the labels according to the requested order.
Result string: 4, 1, 3, 2
